Reference for the values: patent US20200369772A1

# TESTED_TARGET: T1, human PD-L2 (full-length, on cells) (human, UniProt Q9BQ51 20-273)
# T1 chain: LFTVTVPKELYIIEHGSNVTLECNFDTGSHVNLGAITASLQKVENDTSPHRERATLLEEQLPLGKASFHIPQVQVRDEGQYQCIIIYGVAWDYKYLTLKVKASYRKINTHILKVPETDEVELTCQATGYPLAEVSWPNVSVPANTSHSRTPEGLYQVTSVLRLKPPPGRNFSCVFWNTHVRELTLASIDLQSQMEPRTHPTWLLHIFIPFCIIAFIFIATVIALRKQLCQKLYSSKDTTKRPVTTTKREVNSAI
# MEASUREMENT_PROTOCOL: FACS blocking of PD-1 binding to CHO-K1/hPD-L2; high antigen concentration
PARAMETER_MEASURED: IC50
Quote the value and follow it with the unit of measurement.

12A1-D4 (antibody, V domains shown, Both formats under this entry) VH: QVQLQESGPGLVKPSGTLSLTCAVSGGSISSNNWWSWVRQPPGKGLEWIGEIFHVGSTNYNPSLKSRVTISVDKSKNQFSLKLSSLTAADTAVYYCARMVGATGHYYGMDVWGQGTTVTVSS VL: DIQLTQSPSFLSASVGDRVTITCRASQGISSSLAWYQQKPGKAPKFLIYAASTLQSGVPSRFSGSGSGTEFTLTISSLQPEDFATYYCQQLNSYPKSWTFGQGTKVEIK; 0.127 nM
19B3-B3 (antibody, V domains shown, Both formats under this entry) VH: QVQLVQSGAEVKKPGASVKVSCMASGYTFTNYAIHWVRQAPGQRLEWMGWINTGLGKPKYSQMFQDRVTITRDTSASTASMELSGLRSDDTAVYYCARVGWELYFDYWGQGTLVTVSS VL: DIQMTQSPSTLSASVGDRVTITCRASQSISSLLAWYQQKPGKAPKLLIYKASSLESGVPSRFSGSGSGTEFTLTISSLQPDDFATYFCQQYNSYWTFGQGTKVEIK; 0.464 nM
10D1-G1 (antibody, V domains shown, Both formats under this entry) VH: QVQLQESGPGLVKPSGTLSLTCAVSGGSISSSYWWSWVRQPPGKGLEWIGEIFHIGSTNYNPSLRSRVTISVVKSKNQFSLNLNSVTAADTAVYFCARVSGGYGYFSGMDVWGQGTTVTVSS VL: DIQMTQSPSSLSASVGDRVTITCRASQGIRNDLGWYQQKPGKAPKRLIYGASSLQSGVPSRFSGSGSGTEFTLTISSLQPEDFATYYCLQHNSYPRTFGQGTKVEIK; 0.343 nM
9A3-C7 (antibody, V domains shown, Both formats under this entry) VH: QVQLVESGGGLVKPGGSLRLSCAASGFSLSDYYMSWIRQAPGRGLEWVSYISSSGSTIYYVDSVKGRFTISRDNAKNSLYLQINSLRAEDTAVYHCARAQWLPDFDYWGQGTLVTVSS VL: QSALTQPPSASGSPGQSVTISCTGTSSDVGGYNYVSWYQHHPGKVPKLMIYEVSKRPSGVPDRFSGSKSGNTASLTVSGLQAEDEADYYCTSFADNNNVGFGGGTKLTVLG; 0.733 nM
10A9-D2 (antibody, V domains shown, Both formats under this entry) VH: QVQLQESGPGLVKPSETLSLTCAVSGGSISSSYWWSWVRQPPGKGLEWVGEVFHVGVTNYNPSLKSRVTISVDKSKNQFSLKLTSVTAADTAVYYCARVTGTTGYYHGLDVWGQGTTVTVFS VL: DIQMTQSPSSLSASVGDRVTITCRASQGIRNDLGWYQQKPGKVPKRLIYAASSLQSGIPSRFSGSGSGTEFTLTISSLQPEDFATYYCLQHNNYPRTFGQGTKVEIK; 0.198 nM

Pending binder:
Sample 7H5-C5 (antibody, V domains shown, Both formats under this entry) VH: QVQLVESGGGLVKPGGSLRLSCAASGFSLSDYYMSWTRQAPGRGLEWVSFISSSGSTIYYVDSVKGRFTISRDHAKNSLYLQINSLRAEDTAVYYCARAQWLPDFDYWGQGTLVTVSS VL: QSALTQPPSASGSPGQSVTISCTGTSSDVSGYNYVSWYQHHPDKAPKLLIYEVNKRPSGVPARFSGSKSGNTASLTVSGLQAEDEADYYCTSFADNNNVVFGGGTKLTVLG — what was its IC50?
0.58 nM
